B1: library; numbered along this chain (parent)
chain: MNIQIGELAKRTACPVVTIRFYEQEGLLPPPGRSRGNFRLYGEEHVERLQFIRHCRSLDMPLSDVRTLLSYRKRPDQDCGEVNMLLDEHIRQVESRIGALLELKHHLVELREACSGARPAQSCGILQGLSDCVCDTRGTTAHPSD

- Variants of: B1
- assay-procedure: sfGFP reporter fluorescence (15 h) (µM FITC); higher = stronger transcriptional activation
- assay-conditions: library round: Round 1; ligand: 30 µM Zn
Each item that follows carries a reported sfGFP reporter fluorescence.
# print the numeric value only

Illustrative cases are given below, each with its answer.
H105A I125A: 0.0656
L62I R111L: 0.143
P61N D131C: 1.59
N83T L107C C114R G128M: 0.0611
D64K D131C: 0.929

// query sfGFP reporter fluorescence value for entry L107C G128I D135S 4.38

# repeat for K104V L107G G128M 0.29

FYI, the data here is from the supplement of paper PMC12783771.
